test system: KM12 colon; assay: NCI tumour cell line growth inhibition, 48 h
quantity_name: TGI

## Input What TGI value was documented for this compound, "ClC1=C(Cl)C(Cl)(C2(Cl)C(Cl)=C(Cl)C(Cl)=C2Cl)C(Cl)=C1Cl" ?
## Output 4.32 µM

## Input Do the same for COc1ccc(C2=NN(C(N)=S)C(c3ccc4c(c3)OCO4)C2)cc1 (stereo not given) please
## Output 5.19 µM

## Input Do the same for COC(=O)C(Cc1ccccc1)NC(=O)CSc1nnc(COc2ccc(Cl)cc2)n1-c1ccccc1 (stereo not given) please
## Output > 100 µM

## Input Do the same for "NS(=O)(=O)c1ccc(N(/C=C/C(=O)C(F)(F)F)CC(=O)c2ccc(F)cc2)cc1" please
## Output 57.9 µM

## Input Do the same for "COCN1C(=O)[C@@H]2CCCN2C(=O)c2cc(OC)c(Cc3ccccc3)cc21" please
## Output > 100 µM

## Input Do the same for "Cc1ccc(S(=O)(=O)NNC(=O)Nc2cccc(C(F)(F)F)c2)cc1" please
## Output > 100 µM

## Input Do the same for "C=C=C[P+](c1ccccc1)(c1ccccc1)c1ccccc1" please
## Output 28.2 µM

## Input Do the same for "CC1(C)N=C(N)N=C(N)N1c1ccc(OCCCNC(=O)Nc2ccc(S(=O)(=O)F)cc2)c(Cl)c1" please
## Output > 100 µM

## Input Do the same for "O=C(CCC(=O)c1ccsc1)c1ccsc1" please
## Output > 100 µM

## Input Do the same for "COc1cc2c(cc1OS(C)(=O)=O)N=C[C@@H]1CCCN1C2=O" please
## Output > 100 µM

## Input Do the same for CC1=C(O)C(=O)C=C2C1=CC=C1[C@@]2(C)CC[C@@]2(C)C3C[C@@H](C)C(=O)[C@@H](O)[C@]3(C)CC[C@]12C (stereo not given in full) please
## Output 19.6 µM

## Input Do the same for NCCCCCC(CCN)SCC1OC(n2cnc3c(N)ncnc32)C(O)C1O (stereo not given) please
## Output > 1500 µM

## Input Do the same for "CC(C)=CCC[C@@H](C)[C@H]1CC[C@@]2(C)[C@@H]3CC[C@H]4C(C)(C)[C@@H](O)CC[C@@]45C[C@@]35CC[C@]12C" please
## Output > 100 µM

## Input Do the same for C=CCN1C(=O)CC2[C@@H]3CCc4cc(O)ccc4C3CC[C@]2(C)C1=O (stereo not given in full) please
## Output > 10 µM

## Input Do the same for N#CC1=C(N)Oc2c(sc3c(Br)cccc23)C1c1ccc([N+](=O)[O-])cc1 (stereo not given) please
## Output 9.36 µM

## Input Do the same for Cc1ccc(S(=O)c2ccccc2[N+](=O)[O-])cc1 (stereo not given) please
## Output > 100 µM

## Input Do the same for "COC(=O)N[C@H]1CCc2cc(OC)c(OC)c(OC)c2-c2ccc(SC)c(=O)cc21" please
## Output > 100 µM

## Input Do the same for "COc1cc2nc(-c3cccs3)nc(Nc3cccc([N+](=O)[O-])c3)c2cc1OC" please
## Output 40.6 µM

## Input Do the same for "COC(=O)c1c(O)c(C#N)c2[nH]c3ccccc3n2c1=O" please
## Output > 100 µM

## Input Do the same for "CC(C)(C)C(=O)/C=C(\OB(F)F)C(C)(C)C" please
## Output > 100 µM

====

test system: SF-268 CNS; assay: NCI tumour cell line growth inhibition, 48 h
Assign TGI to each entry below.

## Input What TGI value was documented for this molecule, "C=CC(=O)NCCC(=O)OCn1cc(F)c(=O)[nH]c1=O" ?
## Output > 100 µM

## Input Do the same for "O=C1c2ccccc2C(=O)N1/N=C1/SC(=Nc2ccccc2)C(=Nc2ccccc2)N1c1ccccc1" please
## Output > 100 µM

## Input Do the same for "N#CCCNc1nonc1-c1nc2ccccc2n1CC(=O)c1ccc(N)cc1" please
## Output > 82 µM

## Input Do the same for "COC(=O)c1cc2ccc(O)c(O)c2cn1" please
## Output 30.8 µM

## Input Do the same for "C=C=C[P+](c1ccccc1)(c1ccccc1)c1ccccc1" please
## Output > 100 µM

## Input Do the same for "C=CCc1cccc(C=O)c1O" please
## Output > 100 µM

====

Assign TGI to each entry below.
test system: MCF7 breast; experiment: NCI tumour cell line growth inhibition, 48 h

## Input What TGI value was documented for this molecule, "COc1cc2nc(-c3cccs3)nc(Nc3cccc([N+](=O)[O-])c3)c2cc1OC" ?
## Output 59.1 µM

## Input Do the same for "CN1CCN(Cn2nc(COc3ccccc3Cl)n(/N=C/c3ccc(-c4ccc(Cl)cc4Cl)o3)c2=S)CC1" please
## Output 53.3 µM

## Input Do the same for "O=C1C=C(Nc2ccccc2)c2ccccc2C1=O" please
## Output 4.3 µM

## Input Do the same for CC(C)=CC[C@@H]1CC2(CC=C(C)C)C(=O)C(OC3(C(=O)c4ccccc4)C(=O)C4(CC=C(C)C)C[C@@H](CC=C(C)C)C(C)(C)C(CC=C(C)C)(C4=O)C3=O)(C(=O)c3ccccc3)C(=O)C(CC=C(C)C)(C2=O)C1(C)C (stereo not given in full) please
## Output 5.85 µM

## Input Do the same for C=CCC1(O)c2ccccc2C(=O)c2c(OCC(=O)OCC)ccc(OCC(=O)OCC)c21 (stereo not given) please
## Output > 100 µM

## Input Do the same for "Nc1c(C(=O)Nc2cccc(Cl)c2)sc2nc3c(cc12)C(=O)CCC3" please
## Output > 100 µM

## Input Do the same for "CCOC(=O)c1nc2ccccc2nc1Oc1cc(OC)cc(OC)c1" please
## Output > 100 µM

## Input Do the same for "O=C(CCCc1ccc(N(CCCl)CCCl)cc1)NCc1ccccc1" please
## Output > 100 µM

## Input Do the same for "Cc1ccc(-c2n[nH]c(=O)n2/N=C\c2ccccc2O)cc1" please
## Output > 100 µM

## Input Do the same for "NC(N)=N/N=C/c1c(-c2ccccc2[N+](=O)[O-])nc2sccn12" please
## Output 38.1 µM

## Input Do the same for "Cn1cc(-c2ccc3nc(-c4ccc(CC(=O)Nc5cc(C(C)(C)C)no5)cc4)cnc3c2)cn1" please
## Output > 3 µM

## Input Do the same for "O=c1c2ccccc2nc(-c2cccc([N+](=O)[O-])c2)n1O" please
## Output > 100 µM

## Input Do the same for "Cc1cn2cc(-c3cccs3)nc2s1" please
## Output > 100 µM

## Input Do the same for OCC(O)COCn1cc(Cn2ncc3c(SCc4ccccc4)ncnc32)nn1 (stereo not given) please
## Output > 100 µM

## Input Do the same for "N#CCCNc1nonc1-c1nc2ccccc2n1CC(=O)c1ccc(N)cc1" please
## Output > 100 µM

## Input Do the same for COc1cc2nc3n(c2cc1OC)C(O)c1c(Cl)nc(SC)nc1S3 (stereo not given) please
## Output 15 µM

## Input Do the same for "O=C(O)/C=C\C(=O)Nc1ccc2c(c1)-c1ccccc1C2" please
## Output > 100 µM

## Input Do the same for C#CCOC(=O)C(N)CC(N)=O (stereo not given) please
## Output > 100 µM

## Input Do the same for "Sc1cccc2cccnc12" please
## Output 11.6 µM

## Input Do the same for "COc1ccc(-c2nc3sc(-c4cc(OC)c(OC)c(OC)c4)nn3c2/C=C2/C(=O)Nc3ccc(F)cc32)cc1" please
## Output 6.32 µM

## Input Do the same for "COC(=O)c1c(O)c(C#N)c2[nH]c3ccccc3n2c1=O" please
## Output > 100 µM

## Input Do the same for "Cn1cc(C2=C(c3ccsc3)C(=O)NC2=O)c2ccccc21" please
## Output > 25 µM

## Input Do the same for "O=C(O)c1ccc(N(/C=C/C(=O)C(F)(F)F)Cc2ccc(Cl)cc2)cc1" please
## Output > 100 µM

## Input Do the same for "CCOC(=O)c1noc2c1CCc1c-2cn(Cc2ccc(OC)cc2)c1-c1cc(OC)c(OC)c(OC)c1" please
## Output > 100 µM

## Input Do the same for "CCCCn1c(=O)[nH]c(N)c([C@@H]2c3c([nH]c(=O)n(CCCC)c3=O)Oc3ccc4ccccc4c32)c1=O" please
## Output 24 µM

## Input Do the same for "CN(C)c1cccc(-c2cc(=S)c3cc4c(cc3[nH]2)OCO4)c1" please
## Output > 100 µM

## Input Do the same for "Cc1nc2ccc(F)cc2c2c1CCS2" please
## Output > 100 µM

## Input Do the same for "CCNC1=C(NC(=O)c2ccc(F)cc2)C(=O)c2ccccc2C1=O" please
## Output > 100 µM

## Input Do the same for "ClC1=C(Cl)C(Cl)(C2(Cl)C(Cl)=C(Cl)C(Cl)=C2Cl)C(Cl)=C1Cl" please
## Output 0.921 µM

## Input Do the same for "CC(=O)c1ccc(Br)cc1NC1=CC(=O)c2ncccc2C1=O" please
## Output 11.6 µM

Reference source: PubChem BioAssay (NCI)
